Biological target: Hsp90α (Homo sapiens)
Construct: gene HSP90AA1; full length protein
Test: SPR (Biacore […], immobilized recombinant Hsp90α)
Type: binding
quantityName: Kd (nM)
Answer format: numeric, nM implied, no suffix.

Find Kd (Hsp90α (Homo sapiens)) for the entry O=C(CN1C(=O)NC(c2ccccc2)(c2ccccc2)C1=O)NN=C1C(=O)Nc2ccc(F)cc21
41.2
